Molecular target: BTK (Homo sapiens, UniProt Q06187)
Construct: purchased Promega Corporation
Sequence (Q06187 whole entry): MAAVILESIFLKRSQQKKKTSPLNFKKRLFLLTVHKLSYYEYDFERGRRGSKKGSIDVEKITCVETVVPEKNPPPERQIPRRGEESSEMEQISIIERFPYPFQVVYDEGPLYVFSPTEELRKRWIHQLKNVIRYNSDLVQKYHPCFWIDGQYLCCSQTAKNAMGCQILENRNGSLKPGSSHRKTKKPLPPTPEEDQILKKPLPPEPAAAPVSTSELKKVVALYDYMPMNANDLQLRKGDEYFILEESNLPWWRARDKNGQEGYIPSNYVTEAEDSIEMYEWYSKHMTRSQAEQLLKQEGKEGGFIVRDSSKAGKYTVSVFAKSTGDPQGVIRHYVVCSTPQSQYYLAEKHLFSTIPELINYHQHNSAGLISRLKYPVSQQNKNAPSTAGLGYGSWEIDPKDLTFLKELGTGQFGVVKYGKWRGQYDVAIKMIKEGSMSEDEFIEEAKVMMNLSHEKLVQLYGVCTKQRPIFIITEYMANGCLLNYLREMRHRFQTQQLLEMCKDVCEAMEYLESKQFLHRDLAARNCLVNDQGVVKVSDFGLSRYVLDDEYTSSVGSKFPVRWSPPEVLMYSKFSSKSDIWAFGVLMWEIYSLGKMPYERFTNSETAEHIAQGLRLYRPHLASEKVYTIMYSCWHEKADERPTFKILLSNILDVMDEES
Experiment: Inhibitory activity against BTK, ADP-Glo + BTK Kinase enzyme system kit (Promega)
Type: biochemical
Settings: BTK enzyme 1 ng/μl; ATP 10 µM; 15 min preincubation at room temperature; 1 hour at 30° C.; luminescence; duplicate
pIC50: −log10 of the molar value.
Measured Attribute: pIC50

As a guide, the following entries are already answered.
compound="C=CC(=O)N1CCCC(Nc2nc(CN3CCOCC3)cc(Nc3ncc(C)s3)n2)C1 (centres unmarked)" number=8.82
compound=Cc1cnc(Nc2cc(CN3CCOCC3)cc(N[C@H]3CCCN(C(=O)/C=C/Cl)C3)n2)s1 number=8.28
compound=C=CC(=O)N1CCC[C@H](Nc2nc(CN3CCCCC3)cc(Nc3ncc(C)s3)n2)C1 number=8.06
compound="C=CC(=O)N1CCC(Nc2cc(CN3CCOCC3)cc(Nc3ncc(C)s3)n2)C1 (centres unmarked)" number=8.51

[1] C=CC(=O)N1CCC(Oc2cc(CN3CCOCC3)cc(Nc3ncc(C)s3)n2)C1 (centres unmarked)
[2] C=CC(=O)NC1CCN(c2cc(CN3CCOCC3)cc(Nc3ncc(C)s3)n2)CC1
Qu. Lower pIC50: 1 or 2 ? Kindly give the label for the entry you pick.
Ans. 2
(2: 7.07, 1: 8.62)

---

Biological target: ITK (Homo sapiens)
pIC50: −log10 of the molar value.
Measured Attribute: pIC50

// known answers, use as guide
molecule=CC#CC(=O)N1CCC[C@H](Nc2cc(OC3CCN(C)CC3)cc(Nc3ncc(C)s3)n2)C1 number=6.89
molecule=C=CC(=O)N1CCC[C@H](Nc2nc(CN3CCCCC3)cc(Nc3ncc(C)s3)n2)C1 number=7.81

[a] C=CC(=O)N1CCC(Oc2cc(CN3CCOCC3)cc(Nc3ncc(C)s3)n2)CC1
[b] C=CC(=O)N1CCC[C@H](Nc2cc(C)cc(Nc3ncc(C)s3)n2)C1
[c] C=CC(=O)N1CCC[C@H](Nc2cc(CN3CCN(C)CC3)cc(Nc3ncc(C)s3)n2)C1
[d] C=CC(=O)N1CCCC(Nc2cc(CN3CCOCC3)cc(Nc3ncc(C)s3)n2)C1 (stereo not drawn)
Qu. Place the items in sequence of falling pIC50. Answer format: list of labels, ordered as asked.
Ans. c, d, a, b

---

Documented IC50 across a set of molecules
Sequence of the target: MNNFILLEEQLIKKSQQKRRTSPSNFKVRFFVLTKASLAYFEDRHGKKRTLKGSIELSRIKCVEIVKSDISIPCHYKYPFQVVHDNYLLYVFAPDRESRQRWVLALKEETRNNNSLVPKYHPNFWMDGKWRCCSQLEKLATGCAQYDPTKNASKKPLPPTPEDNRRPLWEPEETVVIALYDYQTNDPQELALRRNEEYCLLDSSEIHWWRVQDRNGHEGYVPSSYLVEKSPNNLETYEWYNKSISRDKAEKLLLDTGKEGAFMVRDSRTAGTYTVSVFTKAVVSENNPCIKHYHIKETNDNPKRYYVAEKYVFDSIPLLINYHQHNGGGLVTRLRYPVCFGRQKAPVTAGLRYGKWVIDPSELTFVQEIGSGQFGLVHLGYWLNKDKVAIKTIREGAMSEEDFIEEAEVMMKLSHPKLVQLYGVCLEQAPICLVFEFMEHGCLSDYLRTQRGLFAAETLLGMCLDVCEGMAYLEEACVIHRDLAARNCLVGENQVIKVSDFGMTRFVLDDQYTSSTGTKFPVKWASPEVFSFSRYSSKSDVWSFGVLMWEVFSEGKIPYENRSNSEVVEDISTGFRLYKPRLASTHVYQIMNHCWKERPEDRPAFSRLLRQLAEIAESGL

Worked examples follow.
molecule=C=CC(=O)N1CCC[C@@H](Oc2cc(CN3CCOCC3)cc(Nc3ncc(C)s3)n2)C1 measured_attribute=IC50 result="> 1000 nM"
molecule="C=CC(=O)N1CCCC(Nc2nc(CN3CCOCC3)cc(Nc3ncc(C)s3)n2)C1 (stereo not drawn)" measured_attribute=IC50 result="1.9 nM"

Qu. Fill in: IC50 of C/C=C/C(=O)N1CCC(Nc2cc(CN3CCOCC3)nc(Nc3ncc(C)s3)n2)C1 (stereo not drawn) is ___
Ans. > 1000 nM

Qu. For the molecule `C=CC(=O)N1CCC[C@H](Nc2nc(Nc3ncc(C)s3)cc(CN3CCOCC3)c2F)C1` , what IC50 is on record?
Ans. ~1000 nM

Qu. # IC50 lookup, item `C=CC(=O)N1CCC[C@H](Nc2cc(CN3CCOCC3)cc(Nc3ncc(C)s3)n2)C1`
Ans. > 200 nM

Qu. What IC50 value was documented for this molecule, `C=CC(=O)N1CCC[C@H](Nc2cc(CN3CCOCC3)cc(Nc3cc(Cl)[nH]n3)n2)C1` ?
Ans. ~1000 nM
